target: Neuronal acetylcholine receptor subunit alpha-7 (Rattus norvegicus); assay: Agonist activity at rat alpha7 nAchR expressed in Xenopus oocyte; format: functional
Sequence (Q05941 whole entry): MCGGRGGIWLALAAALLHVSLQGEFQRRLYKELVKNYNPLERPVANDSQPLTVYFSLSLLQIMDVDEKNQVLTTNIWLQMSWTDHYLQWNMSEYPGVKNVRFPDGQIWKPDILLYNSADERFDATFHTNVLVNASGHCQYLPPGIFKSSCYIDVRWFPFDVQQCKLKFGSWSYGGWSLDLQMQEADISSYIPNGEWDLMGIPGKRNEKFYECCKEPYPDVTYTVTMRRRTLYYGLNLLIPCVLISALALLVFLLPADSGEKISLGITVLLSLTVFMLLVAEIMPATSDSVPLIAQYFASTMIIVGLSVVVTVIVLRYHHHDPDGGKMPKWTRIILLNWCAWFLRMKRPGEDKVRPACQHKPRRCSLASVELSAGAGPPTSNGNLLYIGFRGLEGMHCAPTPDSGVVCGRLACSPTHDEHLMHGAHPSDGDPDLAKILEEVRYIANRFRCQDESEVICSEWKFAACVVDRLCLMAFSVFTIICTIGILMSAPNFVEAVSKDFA
experimental_readout: EC50 (µM)
Quick note: give the figure in µM, leave out the unit.

In [3]: df
Out[3]:
                                   compound  experimental_readout  value_observed
0  c1cc2cc(-c3ccc(O[C@H]4CN5CCC4CC5)nn3)ccc2[nH]1 [ABT-107]                  EC50            0.05

From here, focus on the item given below.
// query So what does the record say about EC50 for "O=C1NC[C@@]2(CN3CCC2CC3)O1" ?
// result 21

* * *

molecular target: Neuronal acetylcholine receptor subunit alpha-7 (Homo sapiens, UniProt P36544); experiment: Binding affinity to alpha7 nAChR
Sequence (P36544 whole entry): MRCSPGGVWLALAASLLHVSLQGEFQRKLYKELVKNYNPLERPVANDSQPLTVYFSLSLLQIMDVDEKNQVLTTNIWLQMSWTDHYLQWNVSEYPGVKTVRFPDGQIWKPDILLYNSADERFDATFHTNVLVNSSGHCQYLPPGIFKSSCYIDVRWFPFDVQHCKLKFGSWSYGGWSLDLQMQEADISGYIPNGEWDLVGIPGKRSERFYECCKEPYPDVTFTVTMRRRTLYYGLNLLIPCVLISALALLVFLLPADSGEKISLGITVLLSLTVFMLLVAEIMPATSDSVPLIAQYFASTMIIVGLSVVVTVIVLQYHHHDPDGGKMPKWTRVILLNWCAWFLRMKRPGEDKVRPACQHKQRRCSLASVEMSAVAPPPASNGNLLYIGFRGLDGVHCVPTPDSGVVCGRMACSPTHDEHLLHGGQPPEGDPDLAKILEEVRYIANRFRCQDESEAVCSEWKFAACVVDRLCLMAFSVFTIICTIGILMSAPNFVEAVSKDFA
experimental_readout: Ki
Entry format: amount then unit.

Some entries whose results are on file:
>>> print(df.to_string())
                                   compound                             tested_target  value_observed
0  CN1CC2CN(c3ccc(-c4ccccc4)nc3)CC2C1 (stereo unspecified)  Neuronal acetylcholine receptor subunit alpha-7 (Homo sapiens, UniProt P36544)       0.0096 µM
1  O=C(Nc1ccc(Br)cc1)OC1CN2CCC1CC2 (stereo unspecified)  Neuronal acetylcholine receptor subunit alpha-7 (Homo sapiens, UniProt P36544)        0.167 µM
2        c1ccc2sc(CO[C@@H]3CN4CCC3CC4)cc2c1  Neuronal acetylcholine receptor subunit alpha-7 (Homo sapiens, UniProt P36544)        0.013 µM

// query So what does the record say about Ki for "Cc1nc2nc(N3CCN4CCC3CC4)oc2cc1Cl" ?
// result 0.0032 µM

// query So what does the record say about Ki for "c1ccc2oc(N3CCN4CCC3CC4)nc2c1" ?
// result 0.0225 µM

// query So what does the record say about Ki for "O=C(N[C@H]1CN2CCC1CC2)c1ccc2ccoc2c1" ?
// result 0.0125 µM

// query So what does the record say about Ki for "O=C1O[C@]2(CN3CCC2CC3)CN1c1cccs1" ?
// result 0.08 µM

// query So what does the record say about Ki for c1ccc(-c2ccc(N3CC4CNCC4C3)cn2)cc1 (stereo unspecified) ?
// result 0.0084 µM

// query So what does the record say about Ki for "O=C(Oc1ccccc1)N1CCN2CCC1CC2" ?
// result 0.739 µM

// query So what does the record say about Ki for "O=C(N[C@H]1CN2CCC1CC2)c1ccc2ccsc2c1" ?
// result 0.0021 µM

// query So what does the record say about Ki for "O=C1O[C@]2(CN3CCC2CC3)CN1c1ccc(Cl)s1" ?
// result 0.009 µM

* * *

test: Oral bioavailability in mouse; format: ADME, organism-based; conditions: in vivo
experimental_readout: bioavailability (%)
Quick note: give the figure in %, leave out the unit.

// query So what does the record say about bioavailability for CN1CC2CN(c3ccc(-c4ccccc4)nn3)CC2C1 (stereo unspecified) ?
// result 100

* * *

biological target: Neuronal acetylcholine receptor subunit alpha-7 (Homo sapiens, UniProt P36544); test: Partial agonist activity at human alpha7 nAChR expressed in GH4C1 cells relative to acetylcholine; type: functional, cell-based, GH4-C1
experimental_readout: pEC50
On this scale, pEC50 is minus log10 of a concentration expressed in M (mol/L).

// query Request: pEC50, test system Neuronal acetylcholine receptor subunit alpha-7 (Homo sapiens, UniProt P36544), entry O=C(Oc1ccc(Br)cc1)N1CCN2CCC1CC2 [SSR180711]
// result 6.05
